- TARGET UNDER TEST: RXRα (UniProt P28700)
- Sequence: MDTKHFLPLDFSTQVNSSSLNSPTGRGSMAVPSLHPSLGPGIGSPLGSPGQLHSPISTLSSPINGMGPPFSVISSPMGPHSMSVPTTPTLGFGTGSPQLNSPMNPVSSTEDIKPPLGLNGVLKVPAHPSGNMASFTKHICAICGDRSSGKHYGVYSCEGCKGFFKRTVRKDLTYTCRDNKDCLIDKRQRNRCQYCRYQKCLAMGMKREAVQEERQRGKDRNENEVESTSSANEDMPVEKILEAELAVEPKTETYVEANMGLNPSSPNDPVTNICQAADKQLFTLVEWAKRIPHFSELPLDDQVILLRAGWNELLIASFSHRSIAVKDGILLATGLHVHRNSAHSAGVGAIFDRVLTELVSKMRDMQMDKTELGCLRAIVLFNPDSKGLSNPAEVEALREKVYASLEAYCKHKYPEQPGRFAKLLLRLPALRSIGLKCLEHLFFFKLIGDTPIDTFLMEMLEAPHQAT
- TEST PROTOCOL: MITOMI
- CONDITION SET: On-chip MITOMI, 1 h equilibration; buffer, salt, pH and temperature not in the material (as ref. 23)
MEASURE: Ka (M⁻¹)
Answer with a number only, understood to be in M⁻¹.

Look up Ka: AAACTAGCTCAAAGGTCAAA (double strand) [PPRE G8C] 980000

Okay, and AGACTAGGTCAAAGGTCAAA (double strand) [PPRE A2G] ? 2.05e+08

Same read-out for AAACTAGGTCAAAGGTCAGA (double strand) [PPRE A19G] ? 1.1e+07

How about this sequence: AAACTAGGTCTAAGGTCAAA (double strand) [PPRE A11T] 802000

One more sequence: AAACTAGGTGAAAGGTCAAA (double strand) [PPRE C10G] 2.66e+07

Please do the same for AAACTAGGTCAAATGTCAAA (double strand) [PPRE G14T] as well. 5.14e+06

How about AAAATAGGTCAAAGGTCAAA (double strand) [PPRE C4A] ? 1.64e+08

Field entry: AAACTAAGTCAAAGGTCAAA (double strand) [PPRE G7A] 7.36e+06

One more sequence: AAACTAGGTCAAAGGCCAAA (double strand) [PPRE T16C] 3.59e+06

Next sequence: AAACTAGGTCAAAGGTGAAA (double strand) [PPRE C17G] 1.32e+07

How about AAATTAGGTCAAAGGTCAAA (double strand) [PPRE C4T] ? 2.59e+08

Next sequence up: AAACTAGGTAAAAGGTCAAA (double strand) [PPRE C10A] 3.42e+06

Another: AAACTAGGTCAAAGGTAAAA (double strand) [PPRE C17A] 4.39e+06

Okay, and AAACTAGGTCAAAAGTCAAA (double strand) [PPRE G14A] ? 2.41e+06

Let us now turn to GAACTAGGTCAAAGGTCAAA (double strand) [PPRE A1G] 1e+08

Can you handle AAACTAGGTCAAAGGTCAAT (double strand) [PPRE A20T] next? 2.79e+08

Okay, and AAACCAGGTCAAAGGTCAAA (double strand) [PPRE T5C] ? 3.82e+08

Then AAACTAGGTCAAAGGTCAAC (double strand) [PPRE A20C] ? 9.97e+08

Similarly, AAACTAGGTCAAAGGACAAA (double strand) [PPRE T16A] ? 906000

Item: AAACTAGGCCAAAGGTCAAA (double strand) [PPRE T9C] 5.86e+06

Next sequence up: AAACTAGATCAAAGGTCAAA (double strand) [PPRE G8A] 4.91e+06
